- TARGET: SMARCA4 (Homo sapiens, UniProt P51532)
- Sequence (P51532 whole entry): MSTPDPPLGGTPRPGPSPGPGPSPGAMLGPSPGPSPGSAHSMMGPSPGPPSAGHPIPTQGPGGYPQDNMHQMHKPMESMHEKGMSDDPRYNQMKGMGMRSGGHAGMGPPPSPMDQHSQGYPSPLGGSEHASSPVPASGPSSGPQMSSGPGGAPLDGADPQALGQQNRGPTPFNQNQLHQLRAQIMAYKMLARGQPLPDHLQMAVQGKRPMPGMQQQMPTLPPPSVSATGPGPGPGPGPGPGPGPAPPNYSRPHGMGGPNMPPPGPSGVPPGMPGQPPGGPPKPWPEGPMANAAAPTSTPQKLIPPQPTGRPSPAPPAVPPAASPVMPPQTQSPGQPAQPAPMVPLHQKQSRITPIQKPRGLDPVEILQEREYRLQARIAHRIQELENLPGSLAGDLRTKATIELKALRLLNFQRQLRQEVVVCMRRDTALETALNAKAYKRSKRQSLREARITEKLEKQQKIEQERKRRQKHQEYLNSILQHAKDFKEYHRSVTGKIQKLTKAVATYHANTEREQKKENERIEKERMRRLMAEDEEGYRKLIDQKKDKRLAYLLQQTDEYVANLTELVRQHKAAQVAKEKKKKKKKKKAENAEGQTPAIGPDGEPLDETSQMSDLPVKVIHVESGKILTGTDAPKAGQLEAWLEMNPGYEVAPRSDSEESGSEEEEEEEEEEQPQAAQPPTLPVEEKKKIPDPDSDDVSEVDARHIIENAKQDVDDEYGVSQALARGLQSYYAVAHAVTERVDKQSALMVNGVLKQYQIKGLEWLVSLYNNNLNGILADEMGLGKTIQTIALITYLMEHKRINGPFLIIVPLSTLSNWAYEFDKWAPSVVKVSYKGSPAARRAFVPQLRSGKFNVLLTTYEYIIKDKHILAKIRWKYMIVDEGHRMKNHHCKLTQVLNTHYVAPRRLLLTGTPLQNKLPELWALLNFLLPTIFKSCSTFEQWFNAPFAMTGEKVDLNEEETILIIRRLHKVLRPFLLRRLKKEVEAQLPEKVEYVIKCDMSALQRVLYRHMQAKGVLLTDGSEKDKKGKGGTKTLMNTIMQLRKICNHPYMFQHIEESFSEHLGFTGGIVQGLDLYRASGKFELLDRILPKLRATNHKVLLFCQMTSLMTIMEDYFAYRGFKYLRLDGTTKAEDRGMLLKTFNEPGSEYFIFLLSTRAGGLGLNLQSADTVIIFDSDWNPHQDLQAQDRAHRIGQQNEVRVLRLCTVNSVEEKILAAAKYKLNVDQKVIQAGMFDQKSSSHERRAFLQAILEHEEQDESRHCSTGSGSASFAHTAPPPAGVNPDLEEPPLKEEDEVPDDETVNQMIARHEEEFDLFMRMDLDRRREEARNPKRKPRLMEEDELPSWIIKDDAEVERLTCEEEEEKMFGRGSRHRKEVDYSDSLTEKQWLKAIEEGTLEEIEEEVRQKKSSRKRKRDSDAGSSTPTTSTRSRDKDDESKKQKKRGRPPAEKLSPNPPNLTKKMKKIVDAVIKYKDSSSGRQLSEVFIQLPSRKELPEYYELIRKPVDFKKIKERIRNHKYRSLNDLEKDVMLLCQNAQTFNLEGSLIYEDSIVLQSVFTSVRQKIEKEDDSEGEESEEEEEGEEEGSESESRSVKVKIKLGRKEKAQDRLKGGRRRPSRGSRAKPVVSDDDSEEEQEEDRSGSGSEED
- MEASUREMENT DESCRIPTION: HiBit assay in engineered HT1080 CRISPR knock-in cell, 6 hrs (B series), SMARCA4
- Format: cell-based
- CONDITION SUMMARY: HT-1080, HT1080 CRISPR knock-in cells, 6 hrs incubation; read-out: SMARC A4 HT1080 HiBit Dmax(%)
PARAMETER: Dmax

INSERT INTO assay_data (substance_smiles, parameter, assay_result) VALUES
  ('Cc1ncsc1-c1ccc([C@H](C)NC(=O)[C@@H]2C[C@@H](O)CN2C(=O)[C@H](C(C)C)n2cc(CN3CCC(c4ccc5c(c4)C(C)(C)c4nc(=O)c6c(Cl)cccc6n4-5)CC3)nn2)cc1', 'Dmax', '> 90%');

Reported Dmax of `Cc1ncsc1-c1ccc([C@H](C)NC(=O)[C@@H]2C[C@@H](O)CN2C(=O)[C@@H](c2cc(N3CCC(CN4CCC(c5cccc6c5C(C)(C)c5nc(=O)c7c(Cl)cccc7n5-6)CC4)CC3)no2)C(C)C)cc1` : 70 to 90%

###

Recorded Dmax values for a group of compounds are listed next.
- TARGET: SMARCA2 (Homo sapiens, UniProt P51531)
- Sequence (P51531 whole entry): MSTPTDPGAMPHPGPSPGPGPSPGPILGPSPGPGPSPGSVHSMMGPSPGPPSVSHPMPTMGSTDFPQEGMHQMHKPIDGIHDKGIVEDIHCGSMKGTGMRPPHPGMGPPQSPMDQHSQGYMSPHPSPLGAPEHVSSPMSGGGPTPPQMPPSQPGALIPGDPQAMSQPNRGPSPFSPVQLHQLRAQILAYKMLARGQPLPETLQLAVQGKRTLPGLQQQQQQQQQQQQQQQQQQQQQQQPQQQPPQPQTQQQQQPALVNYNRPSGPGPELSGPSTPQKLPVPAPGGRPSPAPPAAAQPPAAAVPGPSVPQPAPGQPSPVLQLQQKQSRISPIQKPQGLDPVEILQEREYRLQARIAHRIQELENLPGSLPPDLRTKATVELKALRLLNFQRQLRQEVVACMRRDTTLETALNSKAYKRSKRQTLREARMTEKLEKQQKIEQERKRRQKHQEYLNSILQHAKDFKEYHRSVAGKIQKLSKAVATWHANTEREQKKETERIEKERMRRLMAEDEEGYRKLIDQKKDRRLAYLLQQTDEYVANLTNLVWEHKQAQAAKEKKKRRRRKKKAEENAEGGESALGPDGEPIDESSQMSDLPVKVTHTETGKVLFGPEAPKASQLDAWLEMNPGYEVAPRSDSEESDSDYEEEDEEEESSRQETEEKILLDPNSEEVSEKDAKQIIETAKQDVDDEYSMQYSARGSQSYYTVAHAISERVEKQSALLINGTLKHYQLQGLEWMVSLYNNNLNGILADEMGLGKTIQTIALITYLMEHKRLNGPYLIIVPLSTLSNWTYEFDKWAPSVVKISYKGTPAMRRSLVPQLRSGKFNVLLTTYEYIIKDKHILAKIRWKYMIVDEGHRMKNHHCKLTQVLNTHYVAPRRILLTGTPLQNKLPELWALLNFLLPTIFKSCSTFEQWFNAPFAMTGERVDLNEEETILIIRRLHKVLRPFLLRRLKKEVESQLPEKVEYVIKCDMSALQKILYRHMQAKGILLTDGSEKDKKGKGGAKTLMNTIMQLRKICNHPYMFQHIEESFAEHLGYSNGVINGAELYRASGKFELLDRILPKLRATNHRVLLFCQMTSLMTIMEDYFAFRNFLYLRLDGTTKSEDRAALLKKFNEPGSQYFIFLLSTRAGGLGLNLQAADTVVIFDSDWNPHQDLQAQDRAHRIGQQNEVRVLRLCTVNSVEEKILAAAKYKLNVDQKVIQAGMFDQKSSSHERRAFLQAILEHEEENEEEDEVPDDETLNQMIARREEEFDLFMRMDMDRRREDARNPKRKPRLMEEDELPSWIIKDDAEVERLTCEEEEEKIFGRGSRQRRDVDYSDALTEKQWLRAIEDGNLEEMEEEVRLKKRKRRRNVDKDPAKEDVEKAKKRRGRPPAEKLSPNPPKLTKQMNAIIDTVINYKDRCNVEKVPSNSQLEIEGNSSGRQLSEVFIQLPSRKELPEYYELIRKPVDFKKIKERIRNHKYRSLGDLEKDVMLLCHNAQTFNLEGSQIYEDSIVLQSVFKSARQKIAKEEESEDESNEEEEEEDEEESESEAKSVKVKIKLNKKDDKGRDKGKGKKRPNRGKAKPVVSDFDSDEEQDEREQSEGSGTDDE
- MEASUREMENT DESCRIPTION: HiBiT assay for protein degradation, Hela SMARCA2-HiBiT cells (A series);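 note: 24 h compound treatment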
- Type: cell-based
- Design: Hela cells were genetically modified via CRISPR/Cas9 to fuse HiBiT to the carboxy terminus of SMARCA2; host or cells: HeLa (CRISPR/Cas9 HiBiT knock-in)
- CONDITION SUMMARY: Hela SMARCA2-HiBiT cells, 24 hours treatment; read-out: SMARC A2 Hela HiBit Dmax (%)
- Description: Hela cells were genetically modified via CRISPR/Cas9 to fuse HiBiT to the carboxy terminus of SMARCA2 (Promega CS302365) or SMARCA4 (Promega CS3023225). Cells were cultured in DMEM containing 10% FBS and 1% (Vol:Vol) penicillin-streptomycin. […] At the end of experiment, levels of SMARCA2 or SMARCA4 expression were assessed with Nano-Glo® HiBiT Lytic Detection Assay (Promega N3050). IC50 was obtained using the GraphPad Prism data analysis software.

INSERT INTO assay_data (substance_smiles, assay_result) VALUES
  ('Cc1ncsc1-c1ccc([C@H](CN2CCC(F)(F)CC2)NC(=O)[C@@H]2C[C@@H](O)CN2C(=O)[C@@H](n2cc([C@H]3CC[C@H](CN4CCC(c5ccc6c(c5)-n5c(nc(=O)c7c(Cl)cccc75)C6(C)C)CC4)CC3)nn2)C(C)(C)C)cc1', '> 90%'),
  ('Cc1ncsc1-c1ccc([C@H](C)NC(=O)[C@@H]2C[C@@H](O)CN2C(=O)[C@@H](n2cc(CCCN3CCC(c4ccc5c(c4)C4(CCCCC4)c4nc(=O)c6c(Br)cccc6n4-5)CC3)nn2)C(C)(C)C)cc1', '> 90%'),
  ('Cc1ncsc1-c1ccc([C@H](CO)NC(=O)[C@@H]2C[C@@H](O)CN2C(=O)[C@H](C2CCCCC2)n2cc(-c3ccc(CN4CCC(c5ccc6c(c5)-n5c(nc(=O)c7c(Br)cccc75)C65CCCCC5)CC4)cc3)nn2)cc1', '50 to 69%'),
  ('Cc1ncsc1-c1ccc([C@H](C)NC(=O)[C@@H]2C[C@@H](O)CN2C(=O)[C@H](C2CCN(C)CC2)n2cc([C@H]3CC[C@H](CN4CCC(c5ccc6c(c5)-n5c(nc(=O)c7c(Cl)cccc75)C65CCCCC5)CC4)CC3)nn2)cc1', '> 90%'),
  ('Cc1ccccc1-c1ccc([C@H](CN2CCOCC2)NC(=O)[C@@H]2C[C@@H](O)CN2C(=O)[C@@H](n2cc([C@H]3CC[C@H](CN4CCC(c5ccc6c(c5)-n5c(nc(=O)c7c(Cl)cccc75)C65CCCCC5)CC4)CC3)nn2)C(C)(C)C)cc1', '> 90%'),
  ('CC1(C)c2ccc(C3CCN(C[C@H]4CC[C@H](c5cn([C@H](C(=O)N6C[C@H](O)C[C@H]6C(=O)N[C@@H](CN6CCOCC6)c6ccc(-c7scnc7C(=O)O)cc6)C6CCOCC6)nn5)CC4)CC3)cc2-n2c1nc(=O)c1c(Cl)cccc12', '70 to 90%'),
  ('Cc1ncsc1-c1ccc([C@H](C)NC(=O)[C@@H]2C[C@@H](O)CN2C(=O)[C@H](C2CCN(C(=O)[C@H]3CC[C@H](CN4CCC(c5ccc6c(c5)-n5c(nc(=O)c7c(Br)cccc75)C65CCCCC5)CC4)CC3)CC2)n2cc(C3CC3)nn2)cc1', '> 90%');

Now for a further compound.
Note to self: Dmax of `Cc1ncsc1-c1ccc([C@H](Cn2cc(CN3CCC(c4ccc5c(c4)-n4c(nc(=O)c6c(Br)cccc64)C54CCCCC4)CC3)nn2)NC(=O)[C@@H]2C[C@@H](O)CN2C(=O)[C@@H](n2cc(C3CC3)nn2)C(C)(C)C)cc1` with SMARCA2 (Homo sapiens, UniProt P51531) was 70 to 90%

###

- TARGET: SMARCA4 (Homo sapiens, UniProt P51532)
- MEASUREMENT DESCRIPTION: HiBiT assay for protein degradation, Hela SMARCA4-HiBiT cells (A series)
- Assay type: cell-based
- Parameters: fuse HiBiT to the carboxy terminus of SMARCA2 (Promega CS302365) or SMARCA4 (Promega CS3023225); host or cells: HeLa (CRISPR/Cas9 HiBiT knock-in)
- CONDITION SUMMARY: Hela SMARCA4-HiBiT cells, 24 hours treatment; read-out: SMARC A4 Hela HiBit Dmax
Dmax overview

INSERT INTO measurements (substance_smiles, assay_result) VALUES
  ('Cc1ncsc1-c1ccc([C@H](C)NC(=O)[C@@H]2C[C@@H](O)CN2C(=O)[C@H](C2CCN(C(=O)[C@@H]3COCCO3)CC2)n2cc([C@H]3CC[C@H](CN4CCC(c5ccc6c(c5)-n5c(nc(=O)c7c(Cl)cccc75)C65CCCCC5)CC4)CC3)nn2)cc1', '70 to 90%'),
  ('Cc1ncsc1-c1ccc([C@H](CN2CCOCC2)NC(=O)[C@@H]2C[C@@H](O)CN2C(=O)[C@H](C(C)C)n2cc([C@H]3CC[C@H](CN4CCC(c5ccc6c(c5)-n5c(nc(=O)c7c(Cl)cccc75)C6(C)C)CC4)CC3)nn2)cc1', '50 to 69%'),
  ('O=C(O)c1ncsc1-c1ccc([C@H](CN2CCOCC2)NC(=O)[C@@H]2C[C@@H](O)CN2C(=O)[C@H](C2CCOCC2)n2cc([C@H]3CC[C@H](CN4CCC(c5ccc6c(c5)-n5c(nc(=O)c7c(Cl)cccc75)C65CCCCC5)CC4)CC3)nn2)cc1', '< 50%');

Next:
Reported Dmax for `COCCOCCOCCOCCOC[C@H](NC(=O)[C@@H]1C[C@@H](O)CN1C(=O)[C@@H](n1cc([C@H]2CC[C@H](CN3CCC(c4ccc5c(c4)-n4c(nc(=O)c6c(Cl)cccc64)C54CCCCC4)CC3)CC2)nn1)C(C)(C)C)c1ccc(-c2scnc2C)cc1` was 50 to 69%

###

- TARGET: SMARCA4 (Homo sapiens, UniProt P51532)
- MEASUREMENT DESCRIPTION: HiBiT assay for protein degradation, Hela SMARCA4-HiBiT cells (A series)
- Format: cell-based
- Parameters: fuse HiBiT to the carboxy terminus of SMARCA2 (Promega CS302365) or SMARCA4 (Promega CS3023225); host or cells: HeLa (CRISPR/Cas9 HiBiT knock-in)
- CONDITION SUMMARY: read-out: SMARC A4 Hela HiBit DC50
molecules and their reported DC50

Solved entries (count: 3):
INSERT INTO results (molecule, assay_result) VALUES
  ('Cc1ncsc1-c1ccc([C@H](C)NC(=O)[C@@H]2C[C@@H](O)CN2C(=O)[C@@H](n2cc([C@H]3CC[C@H](CN4CCC(c5ccc6c(c5)C5(CCCCC5)c5nc(=O)c7c(Br)cccc7n5-6)CC4)CC3)nn2)C(C)(C)C)cc1 [Compound A60]', '< 100 nM'),
  ('Cc1ncsc1-c1ccc([C@H](CN2CCOCC2)NC(=O)[C@@H]2C[C@@H](O)CN2C(=O)[C@@H](NC(=O)C23CCC(CN4CCC(c5ccc6c(c5)-n5c(nc(=O)c7c(Br)cccc75)C65CCCCC5)CC4)(CC2)C3)C(C)(C)C)cc1 [Compound A24]', '100 to 500 nM'),
  ('Cc1ncsc1-c1ccc([C@H](CN2CCOCC2)NC(=O)[C@@H]2C[C@@H](O)CN2C(=O)[C@@H](NC(=O)C23CCC(CN4CCC(c5ccc6c(c5)C5(CCCCC5)c5nc(=O)c7c(Br)cccc7n5-6)CC4)(CC2)CC3)C(C)(C)C)cc1 [Compound A28]', '100 to 500 nM');

Next:
Item Cc1ncsc1-c1ccc([C@H](C)NC(=O)[C@@H]2C[C@@H](O)CN2C(=O)[C@@H](NC(=O)C23CCC(CN4CCC(c5ccc6c(c5)-n5c(nc(=O)c7c(Br)cccc75)C65CCCCC5)CC4)(CC2)C3)C(C)(C)C)cc1 [Compound A23] was tested on SMARCA4 (Homo sapiens, UniProt P51532); the reported DC50 is 100 to 500 nM

FYI, the data here is from patent US20260092071A1.
